Catalogue of CC50 readings, one per entry.
assay-overview: Cytotoxicity, inhibition of CEM cell proliferation
Assay type: cell-based
stated-conditions: human, CEM cells (CD4+ T-cells), read-out: toxicity CC50
Write the answer as a number in µM, unit excluded.

// known answers, use as guide
{"columns": ["compound", "readout-unit", "CC50"],
 "data": [
  ["CCCCCCCCCCCCCCCCCCOP(=O)(OCc1ccc(OC(=O)CCCC)cc1)OP(=O)(O)OP(=O)(O)OP(=O)(O)OC[C@@H]1C=C[C@H](n2cc(C)c(=O)[nH]c2=O)O1 (stereo partly shown) [compound 6, δ-(AB-C4; alkyl-C18)-d4T4P]", "µM", 40.5],
  ["CCCCCCCCCCCCCCCCCCOP(=O)(OCCCCCCCCCCCCCCCCCC)OP(=O)(O)OP(=O)(O)OP(=O)(O)OC[C@@H]1C=C[C@H](n2cc(C)c(=O)[nH]c2=O)O1 [4c, δ-(Alkyl-C18; alkyl-C18)-d4T4P]", "µM", 50]
]}

Problem: Please report the recorded CC50 for CCCCCCCCCCCCCCCCCCP(=O)(OCCCC)OP(=O)(O)OP(=O)(O)OP(=O)(O)OC[C@@H]1C=C[C@H](n2cc(C)c(=O)[nH]c2=O)O1 (stereo partly shown) [5a, δ-(Alkyl-C4)-δ-C-(alkyl-C18)-d4T4P] .
Result: 44.6

Problem: Please report the recorded CC50 for CCCCCCCCCCCCCCCCCCP(=O)(O)OP(=O)(O)OP(=O)(O)OP(=O)(O)OC[C@@H]1C=C[C@H](n2cc(C)c(=O)[nH]c2=O)O1 [compound 24, δ-C-(Alkyl-C18)-d4T4P] .
Result: 23.2

Problem: Please report the recorded CC50 for CCCCCCCCCCCCCCCCCCOP(=O)(OCC(CC)CCCC)OP(=O)(O)OP(=O)(O)OP(=O)(O)OC[C@@H]1C=C[C@H](n2cc(C)c(=O)[nH]c2=O)O1 (stereo partly shown) [4e, δ-(Alkyl-C8; alkyl-C18)-d4T4P] .
Result: 44.7

Problem: Please report the recorded CC50 for CCCCCCCCCCCCOP(=O)(OCCCCCCCCCCCC)OP(=O)(O)OP(=O)(O)OP(=O)(O)OC[C@@H]1C=C[C@H](n2cc(C)c(=O)[nH]c2=O)O1 [4b, δ-(Alkyl-C12; alkyl-C12)-d4T4P] .
Result: 44.6

Problem: Please report the recorded CC50 for CCCCCCCCCC(=O)Oc1ccc(COP(=O)(OCc2ccc(OC(=O)CCCCCCCCC)cc2)OP(=O)(O)OP(=O)(O)OC[C@@H]2C=C[C@H](n3cc(C)c(=O)[nH]c3=O)O2)cc1 [1a, γ-(AB-C9; AB-C9)-d4TTP, reference compound] .
Result: 73.2

---

Tested on: pig liver esterase (PLE)
assay-overview: Enzymatic hydrolysis with pig liver esterase (PLE)
Type: in vitro ADME
stated-conditions: pig liver esterase in phosphate buffer, PLE in phosphate buffer pH 7.3, 37 °C, read-out: PLE t1/2 (converted)
readout-name: half-life at 0.45 mM (h)
Write the answer as a number in h, unit excluded.

// known answers, use as guide
{"columns": ["molecule", "system", "readout-unit", "half-life at 0.45 mM"],
 "data": [
  ["CCCCCCCCCCCCCCCCCCP(=O)(OCc1ccc(OC(=O)CCCC)cc1)OP(=O)(O)OP(=O)(O)OP(=O)(O)OC[C@@H]1C=C[C@H](n2cc(C)c(=O)[nH]c2=O)O1 (stereo partly drawn)", "pig liver esterase (PLE)", "h", 0.5],
  ["CCCCCCCCCCCCCCCCOC(=O)Oc1ccc(COP(=O)(OCc2ccc(OC(=O)CCCC)cc2)OP(=O)(O)OP(=O)(O)OP(=O)(O)OC[C@@H]2C=C[C@H](n3cc(C)c(=O)[nH]c3=O)O2)cc1 (stereo partly drawn)", "pig liver esterase (PLE)", "h", 1.03]
]}

Continue with the next molecule.
Problem: Please report the recorded half-life at 0.45 mM for CCCCCCCCCCCCCCCCCCOP(=O)(OCc1ccc(OC(=O)CCCC)cc1)OP(=O)(O)OP(=O)(O)OP(=O)(O)OC[C@@H]1C=C[C@H](n2cc(C)c(=O)[nH]c2=O)O1 (stereo partly drawn) .
Result: 1.06
